All values here come from paper PMC10792010.

Each entry below lists one item and its recorded EC50 value.
# Tested System: human VDR (Homo sapiens, UniProt P11473)
# Construct: made in house; host or cells: E. coli (cell lysate used)
# Sequence (P11473 127-423 limits assumed): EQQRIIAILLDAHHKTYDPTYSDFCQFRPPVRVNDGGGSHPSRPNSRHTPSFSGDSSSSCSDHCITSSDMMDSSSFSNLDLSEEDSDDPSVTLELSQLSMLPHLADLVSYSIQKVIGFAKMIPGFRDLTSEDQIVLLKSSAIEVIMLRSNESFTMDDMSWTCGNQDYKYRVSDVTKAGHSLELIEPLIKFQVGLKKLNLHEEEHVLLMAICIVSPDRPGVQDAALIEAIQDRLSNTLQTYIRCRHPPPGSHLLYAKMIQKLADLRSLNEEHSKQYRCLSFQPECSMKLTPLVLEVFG
# Method: VDR binding affinity, split-luciferase vitamin D biosensor
# Experimental Context: split-luciferase biosensor lysate, 25 °C; mean ± SD of at least triplicate determinations; read-out: Concentration at 50% maximum light intensity
Please respond with the number in µM and leave the unit unwritten.

Consider the worked cases shown below.
>>> assay_value("C=C1CCC(O)CC1=CC=C1CCCC2(C)C1CCC2C(C)CCCC(C)(C)O (centres unmarked) [VD-II, 25-hydroxyvitamin D3, reference compound]")
0.074
>>> assay_value("C=C1CCCC(C)(C)[C@@H]1CC/C(C)=C/CC[C@H]1C(=C)CC[C@H]2C(C)(C)CCC[C@]12C")
16
>>> assay_value("C/C(=C\\CC[C@@H]1[C@@]2(C)CCCC(C)(C)[C@@H]2CC[C@@]1(C)O)CC[C@H]1C(C)(C)CCC[C@]1(C)O")
24.6
>>> assay_value("C=C1CC[C@H]2C(C)(C)[C@@H](O)CC[C@]2(C)[C@H]1CC[C@@H]1[C@@]2(C)CCCC(C)(C)[C@@H]2CC[C@@]1(C)O")
13.9

Q: Which measured EC50 value corresponds to C=C1CC[C@H](O)C(C)(C)[C@@H]1CC/C(C)=C/CC[C@@H]1[C@@]2(C)CCCC(C)(C)[C@@H]2CC[C@@]1(C)O ?
Ans: 45.2

Q: Which measured EC50 value corresponds to C=C1CC[C@H]2C(C)(C)CCC[C@]2(C)[C@H]1CC[C@@H]1[C@@]2(C)CCCC(C)(C)[C@@H]2CC[C@@]1(C)O ?
Ans: 11.1

Q: Which measured EC50 value corresponds to CC1=CC[C@H]2C(C)(C)CCC[C@]2(C)[C@H]1CC[C@@H]1[C@@]2(C)CCCC(C)(C)[C@@H]2CC[C@@]1(C)O ?
Ans: 12.6

Q: Which measured EC50 value corresponds to CC(C)=CCC/C(C)=C/CC/C(C)=C/CC[C@@H]1[C@@]2(C)CCCC(C)(C)[C@@H]2CC[C@@]1(C)O ?
Ans: 128

* * *

Each entry below lists one item and its recorded Relative binding affinity value.
# Tested System: human VDR (Homo sapiens)
# Construct: made in house; host or cells: E. coli (cell lysate used)
# Sequence (P11473 127-423 limits assumed): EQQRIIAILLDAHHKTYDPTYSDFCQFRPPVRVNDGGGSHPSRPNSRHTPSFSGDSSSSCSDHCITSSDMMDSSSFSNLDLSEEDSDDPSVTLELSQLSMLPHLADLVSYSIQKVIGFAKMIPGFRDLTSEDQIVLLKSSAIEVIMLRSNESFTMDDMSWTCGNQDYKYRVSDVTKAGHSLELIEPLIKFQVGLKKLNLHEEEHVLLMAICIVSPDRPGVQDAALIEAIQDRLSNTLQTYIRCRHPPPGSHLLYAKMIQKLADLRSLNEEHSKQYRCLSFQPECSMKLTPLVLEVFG
# Method: VDR binding affinity, split-luciferase vitamin D biosensor
# Experimental Context: normalized to that of 1
Format: numeric value only, no unit, no commentary.

Consider the worked cases shown below.
>>> assay_value("CC(C)=CCC/C(C)=C/CC/C(C)=C/CC[C@@H]1[C@@]2(C)CCCC(C)(C)[C@@H]2CC[C@@]1(C)O")
0.88
>>> assay_value("C=C1CCCC(C)(C)[C@@H]1CC/C(C)=C/CC[C@@H]1[C@@]2(C)CCCC(C)(C)[C@@H]2CC[C@@]1(C)O")
1
>>> assay_value("C=C1CC[C@H](O)C(C)(C)[C@@H]1CC/C(C)=C/CC[C@@H]1[C@@]2(C)CCCC(C)(C)[C@@H]2CC[C@@]1(C)O")
2.5
>>> assay_value("C=C1CCCC(C)(C)[C@@H]1CC/C(C)=C/CC[C@H]1C(=C)CC[C@H]2C(C)(C)CCC[C@]12C")
7.0

Turning to the following compound.
Q: Which measured Relative binding affinity value corresponds to C/C(=C\CC[C@@H]1[C@@]2(C)CCCC(C)(C)[C@@H]2CC[C@@]1(C)O)CC[C@H]1C(C)(C)CCC[C@]1(C)O ?
Ans: 4.6
